# assayTarget: Epidermal growth factor receptor (Homo sapiens, UniProt P00533)
# Sequence (P00533 whole entry): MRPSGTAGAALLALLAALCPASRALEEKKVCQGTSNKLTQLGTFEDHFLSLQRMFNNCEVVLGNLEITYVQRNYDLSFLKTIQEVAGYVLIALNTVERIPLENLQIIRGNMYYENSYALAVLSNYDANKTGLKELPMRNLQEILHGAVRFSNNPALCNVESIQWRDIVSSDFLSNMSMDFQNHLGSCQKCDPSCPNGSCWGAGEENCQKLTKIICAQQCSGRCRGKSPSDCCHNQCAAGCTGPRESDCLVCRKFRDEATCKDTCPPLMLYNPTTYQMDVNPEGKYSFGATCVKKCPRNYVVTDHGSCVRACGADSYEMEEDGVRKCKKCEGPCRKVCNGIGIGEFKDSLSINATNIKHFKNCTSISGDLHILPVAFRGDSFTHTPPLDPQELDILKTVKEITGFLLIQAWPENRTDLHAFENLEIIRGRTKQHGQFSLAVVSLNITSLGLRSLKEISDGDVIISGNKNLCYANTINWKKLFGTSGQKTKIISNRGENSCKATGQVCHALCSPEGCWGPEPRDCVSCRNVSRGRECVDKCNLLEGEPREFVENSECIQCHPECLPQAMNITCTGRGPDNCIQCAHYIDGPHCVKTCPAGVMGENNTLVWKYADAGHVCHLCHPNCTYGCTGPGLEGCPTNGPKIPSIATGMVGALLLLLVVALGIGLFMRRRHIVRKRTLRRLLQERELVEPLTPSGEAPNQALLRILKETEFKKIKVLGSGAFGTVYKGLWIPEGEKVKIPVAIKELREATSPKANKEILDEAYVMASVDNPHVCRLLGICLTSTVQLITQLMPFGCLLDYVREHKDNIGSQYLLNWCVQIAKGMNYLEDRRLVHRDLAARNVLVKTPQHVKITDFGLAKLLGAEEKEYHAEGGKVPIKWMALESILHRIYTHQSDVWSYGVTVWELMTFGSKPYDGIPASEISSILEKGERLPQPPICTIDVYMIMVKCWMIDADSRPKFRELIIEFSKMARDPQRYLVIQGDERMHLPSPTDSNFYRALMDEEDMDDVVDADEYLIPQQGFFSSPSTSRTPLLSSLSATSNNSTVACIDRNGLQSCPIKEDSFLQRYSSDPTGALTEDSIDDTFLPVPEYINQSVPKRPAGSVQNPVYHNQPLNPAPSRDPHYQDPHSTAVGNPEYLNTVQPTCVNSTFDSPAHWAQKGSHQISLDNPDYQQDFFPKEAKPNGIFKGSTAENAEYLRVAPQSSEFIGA
# procedureSummary: Inhibition of EGFR (unknown origin) incubated for 40 mins by kinase-glo plus luminescence assay
property: IC50 (µM)
Give bare numbers, in µM.

query: Item: COc1cc(NC(=O)CCCCCCCCCCC(=O)NO)ccc1Nc1nccc(-c2cn(C)c3ccccc23)n1 Test system: Epidermal growth factor receptor (Homo sapiens, UniProt P00533) Read-out: IC50 Value: ?
result: 5.7

* * *

# Tested on: KG-1
# procedureSummary: Antiproliferative activity against human KG-1 cells incubated for 72 hrs by MTT assay
# Assay type: functional, cell-based
# particulars: KG-1, 72 h
property: pIC50
Give bare numbers, as −log10 of the molar value.

[
  {
    "molecule": "COc1cc(NC(=O)CCCCCCCCCCC(=O)NO)ccc1Nc1nccc(-c2cn(C)c3ccccc23)n1",
    "pIC50": 6.62
  }
]

Let's switch to this molecule now.
query: Any idea what pIC50 came out for C=CC(=O)Nc1cc(Nc2nccc(-c3cn(C)c4ccccc34)n2)c(OC)cc1N(C)CCN(C)C [OSIMERTINIB] on KG-1?
result: 6.28

* * *

# assayTarget: Epidermal growth factor receptor (Homo sapiens, UniProt P00533)
# procedureSummary: Inhibition of EGFR (unknown origin)
property: IC50 (nM)
Answers are plain numbers, in nM.

query: Record O=C(CCCCCCn1cc(-c2ccc3ncnc(Nc4ccc(Br)cc4F)c3c2)nn1)NO : what is its IC50 with Epidermal growth factor receptor (Homo sapiens, UniProt P00533)?
result: 10.3

* * *

# System: THP-1
# procedureSummary: Antiproliferative activity against human THP1 incubated for 72 hrs by Trypan Blue reagent based assay
# Type: functional, cell-based
# particulars: THP-1, 72 h
property: pIC50
Numbers only, as −log10 of the molar value.

query: Which pIC50 value belongs to Cc1noc(C)c1-c1ccc2c(c1)c(Cc1ccc(F)cc1)cn2CCCCCCC(=O)NO ?
result: 4.81
